- Test: Toxicokinetics of S9229 in the 28-day rat study
- Format: in vivo, Sprague-Dawley rats
- Measurement Setup: male, Sprague-Dawley (Crl:CD(SD)), rat, plasma, po, 10 mg/kg, Cmax, Day 1, 10 mg/kg bw, M

Compound	Cmax
COC[C@@H](CC(C)C)NC(=O)c1ccc(C)c(C)c1 [S9229]	3.2 ng/mL

* * *

- Test: Toxicokinetics of S9229 in the 28-day rat study
- Assay type: in vivo, Sprague-Dawley rats
- Measurement Setup: female, Sprague-Dawley (Crl:CD(SD)), rat, plasma, po, 30 mg/kg, Cmax, Day 1, 30 mg/kg bw, F

Molecular String	Cmax [ng/mL]
COC[C@@H](CC(C)C)NC(=O)c1ccc(C)c(C)c1	8.6
